Assay explanation: folding stability dG unfold (combined trypsin and chymotrypsin); higher = more stable
Quick rule: folding stability dG unfold of at least 2 kcal/mol means TRUE, below that means FALSE.

Solved entries:
# Macromolecule sequence, Label
records = [
    ("SAGWKIKIYPPNGQPQEIPIEDAKEIAEELAEQGNVQITPDGDIYIPFPMKDPEDGKPHQMYIQIERDKSAG [r5_243_TrROS]", "FALSE"),
    ("SAGGSAGGSAGGELKLLRIEVTGRAPYPTELLKTVEIVLPNEDVTEEQIRELLKELGIELSAGGSAGGSAGG [r7_903_TrMRF]", "FALSE"),
    ("SAGGSAGGSAGGSSVVIVADSAEEAKAALKELGIKDAKVVPLKPVKVFTDEQLKELKKKSAGGSAGGSAGGS [r4_101_TrROS_Hall]", "FALSE"),
    ("SAGGSAGGSPYKEIPFRFPENGYKVHIKKDPNGSVKIYVMGPNMRERTIPPDEPLEIEPGARLSAGGSAGGS [r12_1003_TrROS]", "FALSE"),
    ("SAMDFPPGSTATIKVEVKNPDNTKTETYEIEVPVDPETGKAITLEDLKEALEKLGVNPENVKIVDIKVGSAG [r14_93_TrMRF]", "TRUE"),
    ("SAGGSAGGSAGGKPKYKIVEIKYDKETKTVTLKIKLENGETVEITVPPGTSLEDILKALSAGGSAGGSAGGS [r10_984_TrROS_Hall]", "TRUE"),
]

Could you tell me if the measured folding stability dG unfold of SAGGSAGGSAGGKPKIEIELTFIDEDGYAYRLRAEIEIDEDGNVHIEVEIEKVPLPEGLSAGGSAGGSAGGS [r10_563_TrROS_Hall] reaches 2 kcal/mol or more?
TRUE

Could you tell me if the measured folding stability dG unfold of SAGGSAVTITVDDFEDIEDAEITLTRPDGRPVVARVRVEKGEGAPRVTVLWREPGSGRYRVETFPLSAGGSA [r15_1006_TrMRF] reaches 2 kcal/mol or more?
FALSE

Could you tell me if the measured folding stability dG unfold of SAGGSAGGSAGMLIELTVETSVTTVSTPDATFTVVTLKEPGKPETLGTVVYDPATGSPALSAGGSAGGSAGG [r11_645_JUSTAS] reaches 2 kcal/mol or more?
FALSE

Could you tell me if the measured folding stability dG unfold of SAGGSAGGSAGSMTTTTTIVKLPNGTLVLETPTVTTTTFPETGTTTTTTTVTVTVLPGLSSAGGSAGGSAGG [r11_1008_JUSTAS] reaches 2 kcal/mol or more?
FALSE

====

Assay explanation: folding stability dG unfold from trypsin proteolysis; higher = more stable
Quick rule: folding stability dG unfold of at least 3 kcal/mol means fulfilled, below that means not fulfilled.

# Macromolecule sequence, Label
measured = [
    ("KKEEEIKKLEEAVREALKKKGLEVKIVEVKKNKNGEYTLTIELKDGKKIEITIKKEKMTVEDILKKLKELLS [r1_279_TrROS_Hall]", "fulfilled"),
    ("SAGGSFVVIEPTADGVRIVLEDDGALREVPVSPEVAAALAANPDLEGVVRSLLPEGHPIERIAAVPGSAGGS [r16_567_TrMRF]", "not fulfilled"),
    ("SAMVRIERLPDGSLLVVVESEGKEEGLEFIERFIEEIKSLGIDAEIELLSIEEIPEDPKRYRATFLIKASAG [r14_119_TrMRF]", "fulfilled"),
    ("SASPDAPVEVVVSLRELRERIEAEHPGRPVTPEDVAALAREELEAAGRPLEDLRVEAVDEATGTVRLVASAG [r14_303_JUSTAS]", "not fulfilled"),
]

Could you tell me if the measured folding stability dG unfold of SMKKKVVVKAKIEKIRPDGGKEELEEVFVMEVSPDDPEEIKAAIDEAIEALKKAYPNIKKIEIEEVIIEDSA [r9_436_TrMRF] reaches 3 kcal/mol or more?
fulfilled

Could you tell me if the measured folding stability dG unfold of SAGGMKLTVEIEYDEETEEVTIRIRNEETGEEIEITLSKEEVEKLLEALEKNPEKSIEEALLEALKESAGGS [r8_484_TrROS_Hall] reaches 3 kcal/mol or more?
not fulfilled

====

Assay explanation: folding stability dG unfold from trypsin proteolysis; higher = more stable
Record form. Attribute: folding stability dG unfold. Fill in for each entry.
Answer shape: numeric part, then the unit.

Consider the worked cases shown below.
# Macromolecule sequence, folding stability dG unfold
rows = [
    ("SAGGSAGGSGLPIVVQEDGTLVLRREGDGTAAFDVVPLEEFERLPEEFLESLPASALPDPLPLSAGGSAGGS [r12_793_JUSTAS]", "-0.428 kcal/mol"),
    ("SAGGSAGGSAGGVPPGAPELRLKVTVTVTTVELDEDTNELTTTTETVTVEVTVKVGETLSAGGSAGGSAGGS [r10_133_TrROS_Hall]", "0.616 kcal/mol"),
    ("SAGGSAGGSAGMTVPTSVEVSPDGTVRVRQLRWVRHGDGWRPFTFTVTLPISDDALKALKSAGGSAGGSAGG [r17_415_TrMRF]", "1.02 kcal/mol"),
]

Give folding stability dG unfold for all sequences that follow.
1. SAGGSAGGSAGKQPIEMWFMFPNGVAIVLRIKVDPPSPKAKIDAIEVVPVRDPDNGKWRFSAGGSAGGSAGG [r11_919_TrROS]
2. SAGGSAGGSAGGLSPESFYTVEVYNKDGTKLGPAQVVSTGTGKVVIPIEPDVEIILNPSSAGGSAGGSAGGS [r10_1257_JUSTAS]
3. SAGKPKVKVETVTIEVDGKKIKIEVVELENGEKLVRVEVFDENGELVETKTVTLEELKKLLEKAGIEVSAGG [r19_90_TrROS_Hall]
4. SAGGSAGGSAGMTVPPELSVTITRSPEGSLRVESPVPDRELTIPPDVPLTVSPDNVVTVASAGGSAGGSAGG [r17_49_JUSTAS]
5. SAGGKDVKPIPVRIKIWYPDDGKPIHEIPVSAYQMDDKIHITFESPELLQFAKELAQKKGFKVEIEPSAGGS [r16_327_TrROS]

0.566 kcal/mol
0.346 kcal/mol
1.64 kcal/mol
0.451 kcal/mol
0.513 kcal/mol

Give folding stability dG unfold for all sequences that follow.
1. SAGGSAGGSAGSKEKLEEEAKAKGRPVTPLPDGTLKVETVDPNKGTASTTVIDPETAEKLSAGGSAGGSAGG [r11_994_JUSTAS]
2. SAGGGSMFSTIYDPNSNNSIEAPLLSIREEDGRPTIEYQLPDGTRVTRPLSELGAFTLTGGAGSLTLPSAGG [r13_211_JUSTAS]
3. SAGGDPGWVRVTAEIELDGKNLKIEWWYMPNGNYYYNIEFPNGKEIEIMIPMEPGDVEEFAEYIAKKLSAGG [r13_296_TrROS]
4. SAGGSAGGSAGGSEVEVLDSRPLPDGHHLVLVRFPDGSYALYRIYPDGSVEVEVFSDDGSAGGSAGGSAGGS [r4_483_TrMRF]
5. SAGGLIIPEEYEIVEKKAEILPDGSLRYTFILRPKSGELLLVEIRYPPDGSIEIEARRLTPEELKKALSAGG [r13_773_TrMRF]
6. SAGGSAGGSAGGSSMSISVLEVRELPNGTLEITTVDYNPDNGYTTTTTYTLPPGQPLLISAGGSAGGSAGGS [r4_133_JUSTAS]

1: -0.626 kcal/mol; 2: 0.83 kcal/mol; 3: 2.32 kcal/mol; 4: 2.47 kcal/mol; 5: 3.13 kcal/mol; 6: 1.8 kcal/mol

====

Assay explanation: folding stability dG unfold from trypsin proteolysis; higher = more stable
Value type: folding stability dG unfold (kcal/mol)
Give bare numbers, in kcal/mol.

# Macromolecule sequence, Measurement units, folding stability dG unfold
data = [
    ("SAGGSAGGSAPVFTSPEEAEKYAREKLLREKPESHPDLVVNVNVTVTTEPDGTITIEIDYKESAGGSAGGSA [r18_440_JUSTAS]", "kcal/mol", 0.932),
    ("SAGGSAGGSAGGKPVKLEISFDKETNTITIKAVDEENKTVTETTIKVTFLPPPPPPPPKSAGGSAGGSAGGS [r10_331_TrROS_Hall]", "kcal/mol", 1.09),
    ("SAGGSAGGSMLEEKIKQVPKSEKATITIKVKNENGKWKVVTVEVTYIEGKNEYEVKITITPEPGSAGGSAGG [r6_545_JUSTAS]", "kcal/mol", 1.73),
]

Now take the following sequence into account.
Query folding stability dG unfold for SAGGGAEEEAKKIAEELEKIGGVKKVEVEVKPKPDDSVEVKVKVEFEPPKPPKPPVVELPENGELVFKSAGG [r13_957_TrMRF]
-0.0749

====

Assay explanation: folding stability dG unfold (combined trypsin and chymotrypsin); higher = more stable
Value type: folding stability dG unfold (kcal/mol)
Give bare numbers, in kcal/mol.

Consider the worked cases shown below.
# Macromolecule sequence, Measurement units, folding stability dG unfold
records = [
    ("SMYKLSVYRNGQPVPEEEALERVKRIEEELGREVDPEELARLLAAEPDTVVTVTKYAEPGKPIGTLTYTRSA [r9_1045_JUSTAS]", "kcal/mol", 1.39),
    ("SAGGSAGGSAVTVDPSSNVVTTTDPATGTSTVTTTPPLPNGTPVLTSTTTTDAAGTPTTTTVTSAGGSAGGS [r12_952_JUSTAS]", "kcal/mol", 2.04),
    ("SAGGTAEEIVEALKEAGIPVLSIEPNSDGTYTITVGGPDGTPFTIEISSANPADLAALKEAIPEEVSSAGGS [r16_821_TrMRF]", "kcal/mol", 3.86),
]

Give folding stability dG unfold for all sequences that follow.
1. SAGGSAGGSEKIIEELKKKFPGLKIDKIEITVKKKKITIELKPPPKVYLTKEELEKKGYKIEKSAGGSAGGS [r12_3_TrROS_Hall]
2. SAMEIEIEPLEKEELLKLPGAEIRLFYFPDRVLAEILLPDGTPFFVEFDPSLKPEEVLEKLLKLLEELGSAG [r14_618_TrMRF]
3. SALEELLKELAEKLGYPYTVLEIKKEENTYKMVIKLTKEGTPVIVDVEIEFPSSDPNVYKVKIKKIEEPSAG [r14_387_JUSTAS]
4. SAGGKKTVEIPIWMPYDDAKNIAKEAVEEAAASNDNVTVTIEIWQWEPDPNGKPEWQPIGKAEIKVPPSAGG [r13_974_TrROS]

[0.87, 4.23, 3.49, -0.43]
